Provenance of the data: patent US20210347873A1

The following binders are shown together with reported OD450 nm (as headed), mouse B lymphocyte proliferation; antibody 0 nM values.
- target of assay: extracellular domain of human BLyS protein (hBLyS-ECD), His-tagged, Ala134-Leu285 (human, UniProt Q9Y275 134-285)
- Sequence (Q9Y275 134-285): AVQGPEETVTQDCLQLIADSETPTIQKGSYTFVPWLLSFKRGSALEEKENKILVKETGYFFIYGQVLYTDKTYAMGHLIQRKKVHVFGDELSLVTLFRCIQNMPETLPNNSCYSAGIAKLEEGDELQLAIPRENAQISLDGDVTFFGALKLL
- experiment description: cell-based or functional assay
API note: the answer field is a bare number with no unit suffix.

- binder: "c8E7D9C7F5 (antibody, V domains shown, also called chimeric antibody c8E7D9C7F5) VH: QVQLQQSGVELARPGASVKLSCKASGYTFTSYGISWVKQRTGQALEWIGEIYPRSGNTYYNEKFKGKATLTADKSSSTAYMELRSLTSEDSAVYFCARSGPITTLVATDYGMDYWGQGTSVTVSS VL: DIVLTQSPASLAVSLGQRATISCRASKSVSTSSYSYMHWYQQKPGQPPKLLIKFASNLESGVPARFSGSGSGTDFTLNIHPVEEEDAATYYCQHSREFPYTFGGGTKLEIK"
  val: 4750

Param item = c67A2E1D10 (antibody, V domains shown) VH: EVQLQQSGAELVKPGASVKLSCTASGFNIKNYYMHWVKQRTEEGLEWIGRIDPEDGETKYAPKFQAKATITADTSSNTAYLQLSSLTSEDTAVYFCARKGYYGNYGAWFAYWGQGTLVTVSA VL: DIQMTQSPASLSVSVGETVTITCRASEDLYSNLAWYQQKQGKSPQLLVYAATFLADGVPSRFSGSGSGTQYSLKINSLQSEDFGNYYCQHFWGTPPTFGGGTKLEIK ; retrieve measured OD450 nm (as headed), mouse B lymphocyte proliferation; antibody 0 nM.
4060

Request: c97A3C2H4 (antibody, V domains shown, also called chimeric antibody c97A3C2H4) VH: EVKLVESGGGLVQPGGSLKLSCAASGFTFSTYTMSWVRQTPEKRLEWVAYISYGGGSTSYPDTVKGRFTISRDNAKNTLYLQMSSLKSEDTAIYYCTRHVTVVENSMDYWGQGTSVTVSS VL: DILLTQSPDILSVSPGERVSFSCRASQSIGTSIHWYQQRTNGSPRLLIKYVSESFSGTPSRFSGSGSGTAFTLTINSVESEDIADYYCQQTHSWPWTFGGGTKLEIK
4440
